Numbers sourced from paper PMC6152180.

- measured target: BuChE (Equus caballus, UniProt P81908)
- Construct: purchased Aladdin B128570-2KU; host or cells: equine serum
- Sequence (P81908 whole entry): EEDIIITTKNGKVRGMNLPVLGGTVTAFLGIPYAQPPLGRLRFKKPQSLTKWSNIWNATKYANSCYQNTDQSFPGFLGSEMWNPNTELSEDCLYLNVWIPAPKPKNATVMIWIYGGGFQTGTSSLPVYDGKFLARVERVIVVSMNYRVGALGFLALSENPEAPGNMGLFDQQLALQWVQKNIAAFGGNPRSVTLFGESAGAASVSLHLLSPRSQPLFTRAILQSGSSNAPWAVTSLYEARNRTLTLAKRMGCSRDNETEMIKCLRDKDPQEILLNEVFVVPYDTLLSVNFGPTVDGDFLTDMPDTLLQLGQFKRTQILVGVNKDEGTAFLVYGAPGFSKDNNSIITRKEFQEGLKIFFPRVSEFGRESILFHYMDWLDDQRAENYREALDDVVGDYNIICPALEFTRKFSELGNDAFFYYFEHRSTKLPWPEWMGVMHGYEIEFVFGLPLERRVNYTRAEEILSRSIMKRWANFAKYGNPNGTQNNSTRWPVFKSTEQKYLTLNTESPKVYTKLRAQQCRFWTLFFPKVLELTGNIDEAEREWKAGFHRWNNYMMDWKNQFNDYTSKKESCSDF
- experiment description: biochemical
- details: BuChE from equine serum; means ± SEM of three experiments; read-out: BuChE Inhibition, (IC50)
observable: IC50 (nM)

COc1cccc(CNC(=O)COc2cc(O)c3c(c2)OC(c2ccc(OC)c(O)c2)CC3=O)c1 (stereo not drawn) [Compound 4j] :: 2460
COc1ccc([C@@H]2CC(=O)c3c(O)cc(OCC(=O)NCc4ccc(C(F)(F)F)cc4)cc3O2)cc1O [Compound 4f] :: 2860
COc1ccc(CNC(=O)COc2cc(O)c3c(c2)OC(c2ccc(OC)c(O)c2)CC3=O)cc1 (stereo not drawn) [Compound 4e] :: 3210

* * *

- experiment description: in vitro
- details: human
observable: viability at 48 h, 10 µM (%)

COc1ccc(CCNC(=O)COc2cc(O)c3c(c2)OC(c2ccc(OC)c(O)c2)CC3=O)cc1 (stereo not shown) [Compound 4l] :: 94.5
COc1ccc([C@@H]2CC(=O)c3c(O)cc(O)cc3O2)cc1O [Hesperetin, hesperetin] :: 93
COc1ccc(C2CC(=O)c3c(O)cc(OCC(=O)NCCc4ccc(Cl)cc4)cc3O2)cc1O (stereo not shown) [Compound 4m] :: 97.3
COc1ccc(C2CC(=O)c3c(O)cc(OCC(=O)NCc4ccccc4OC)cc3O2)cc1O (stereo not shown) [Compound 4i] :: 96.7
COc1ccc(C2CC(=O)c3c(O)cc(OCC(=O)NCc4ccncc4)cc3O2)cc1O (stereo not shown) [Compound 4s] :: 97.5
COc1ccc(C2CC(=O)c3c(O)cc(OCC(=O)NCCc4ccccc4)cc3O2)cc1O (stereo not shown) [Compound 4k] :: 96.5
COc1ccc(C2CC(=O)c3c(O)cc(OCC(=O)NCCc4ccc(Br)cc4)cc3O2)cc1O (stereo not shown) [Compound 4n] :: 96.5
COc1cccc(CNC(=O)COc2cc(O)c3c(c2)OC(c2ccc(OC)c(O)c2)CC3=O)c1 (stereo not shown) [Compound 4j] :: 98.2
COc1ccc(C2CC(=O)c3c(O)cc(OCC(=O)NCc4ccccc4)cc3O2)cc1O (stereo not shown) [Compound 4a] :: 91.6
COc1ccc(CNC(=O)COc2cc(O)c3c(c2)OC(c2ccc(OC)c(O)c2)CC3=O)cc1 (stereo not shown) [Compound 4e] :: 98.3
COc1ccc(C2CC(=O)c3c(O)cc(OCC(=O)NCc4ccco4)cc3O2)cc1O (stereo not shown) [Compound 4t] :: 97.5
COc1ccc(C2CC(=O)c3c(O)cc(OCC(=O)NCc4ccc(F)cc4)cc3O2)cc1O (stereo not shown) [Compound 4c] :: 97.5
COc1ccc(C2CC(=O)c3c(O)cc(OCC(=O)NCc4ccccc4Cl)cc3O2)cc1O (stereo not shown) [Compound 4g] :: 95.7

* * *

- experiment description: in vitro
- details: human
Each entry below carries its recorded viability at 48 h, 100 µM.
observable: viability at 48 h, 100 µM (%)

COc1ccc(C2CC(=O)c3c(O)cc(OCC(=O)NCCc4ccc(F)cc4)cc3O2)cc1O (stereo not shown) :: 59.7
COc1ccc(C2CC(=O)c3c(O)cc(OCC(=O)NCCc4ccccc4F)cc3O2)cc1O (stereo not shown) :: 66.5
COc1ccc(C2CC(=O)c3c(O)cc(OCC(=O)NCc4ccco4)cc3O2)cc1O (stereo not shown) :: 61.2
COc1ccc(CCNC(=O)COc2cc(O)c3c(c2)OC(c2ccc(OC)c(O)c2)CC3=O)cc1 (stereo not shown) :: 63.2
COc1ccc(C2CC(=O)c3c(O)cc(OCC(=O)NCc4ccncc4)cc3O2)cc1O (stereo not shown) :: 59.6
COc1ccc(C2CC(=O)c3c(O)cc(OCC(=O)NCCc4ccc(Cl)cc4)cc3O2)cc1O (stereo not shown) :: 64.5
COc1ccc(C2CC(=O)c3c(O)cc(OCC(=O)NCCc4ccccc4)cc3O2)cc1O (stereo not shown) :: 68.5
COc1cc(/C=C/C(=O)CC(=O)/C=C/c2ccc(O)c(OC)c2)ccc1O [Curcumin, curcumin, reference compound] :: 71.8
COc1ccc(C2CC(=O)c3c(O)cc(OCC(=O)NCc4ccccc4F)cc3O2)cc1O (stereo not shown) :: 60.6
COc1ccc(C2CC(=O)c3c(O)cc(OCC(=O)NCc4ccc(Br)cc4)cc3O2)cc1O (stereo not shown) :: 70
